src = the array DNA melting data of Ke et al. (doi:10.1101/2024.01.08.574731)

assay: folding enthalpy; higher = less favourable; fluorescence melt of hairpins on a sequencing array, two-state fit; conditions: sodium 0.088 M
folding enthalpy: recorded values
Your answer is read as kcal/mol, so omit the unit and give the number.

Take a look at these entries with their results.
| sequence.data | readout.units | folding enthalpy |
| --- | --- | --- |
| GGTCTCCGAAAGGATACC (((.(((....))).))) | kcal/mol | -26.8 |
| GCCAGTGGAAACACCAGC ((..(((....)))..)) | kcal/mol | -13.9 |
| GCCTACGAAAGTATCGGC ((((((....)))..))) | kcal/mol | -24.7 |
| GCATTACCGAAAGGTTGC (((..(((....)))))) | kcal/mol | -20.1 |
| GTCAGCGGAAACGCTAAC ((.((((....)))).)) | kcal/mol | -15.2 |

Need folding enthalpy, item GGGATCGAAAGATCCCCC ((((((....)))..)))
-10.2

Could you do the same for GACGTGGGAAACCGTGTC (((..((....))..))) , please?
-16.8

What do you have for GCCTTGCGAAAGCACAGC ((..(((....)))..)) ?
-7.49

Try this sequence too: GATCATAAGGATGATC ((((((....))))))
-32.5

Proceed to GCCTGGCGAAAGCCTCGC ((..(((....)))..))
-9.28

====

assay: folding enthalpy; higher = less favourable; fluorescence melt of hairpins on a sequencing array, two-state fit; conditions: sodium 0.088 M
Label scheme for folding enthalpy: lower than -20 kcal/mol is f, -20 kcal/mol and above is t.

Sample answers from the record:
| sequence.data | category.label |
| --- | --- |
| GCAGGAGCGAAAGCTTGC (((..(((....)))))) | t |
| GGAGGGCGAAAGCCATCC (((.(((....))).))) | f |
| GGAACACGAAAGTGTCC (((.(((....)))))) | f |
| GGAACGGGAAACCGCTCC (((.(((....))).))) | f |
| GTTGACGAAAGTCCAAAC ((((((....)))..))) | t |

Item GATCACGAATGTGATC ((((((....)))))) with folding enthalpy of -20 kcal/mol or above?
f

Next record, please: GCATCGCGAAAGCTACGC ((.(.((....)).).))
t

Next record, please: GGTGGTGGAAACACCATC (.(((((....))))).)
f

Same lookup for GACGGTGGAAACGCTGTC (((.(.(....).).))) , please.
f

Query GCCTTCGAAAGAACTGGC ((((((....)))..))) next
f

Now consider GATCTGACGCAGATC ((((((...)))))) .
f

Let us now turn to GATGCTGGAAACAGTATC (((.(((....))).)))
f

Entry GACGACGAAAGTCGCGTC ((((((....)))..))) please
t

====

assay: folding enthalpy; higher = less favourable; fluorescence melt of hairpins on a sequencing array, two-state fit; conditions: sodium 0.088 M
Catalogue of folding enthalpy readings, one per entry.

Use these answered entries as a reference point.
| sequence.data | measurement |
| --- | --- |
| GTTTCGGAAACGAAAC ((((((....)))))) | -35.9 kcal/mol |
| GCCATTCGAAAGAAGGC (((.(((....)))))) | -25.6 kcal/mol |
| GGCATCGAAAGATGTGCC ((((((....)))..))) | -17.8 kcal/mol |

Dear colleague, I am looking for the recorded folding enthalpy of the following sequence: GATCGTTTCCACGATC ((((((....))))))
-40.5 kcal/mol

Same question for GGGTTGGGAAACCAGTCC ((..(((....)))..)) please.
-16.4 kcal/mol

====

test: melting temperature; fluorescence melt of hairpins on a sequencing array, two-state fit, raised by 9.35 °C to match UV melts; conditions: sodium 0.088 M
reported.property: Tm (°C)
Numeric answer only, unit °C assumed.

Consider the worked cases shown below.
| sequence.data | Tm / °C |
| --- | --- |
| GATCATTCCATGATC ((((((...)))))) | 51 |
| GTCACCGAAAGGTCCGAC ((((((....)))..))) | 31.1 |
| GATCCCAGATGGGATC ((((((....)))))) | 57.6 |

Any idea what Tm was measured for GAAAATGAAAATTTTC ((((((....)))))) ?
38.6

Again, but for GCGTCCGAAAGGATCCGC ((((((....)))..)))
44.7

Subsequent entry: GGGCGCTCGAAAGAGCCC (((..(((....))))))
56.9

====

assay: melting temperature; fluorescence melt of hairpins on a sequencing array, two-state fit, raised by 9.35 °C to match UV melts; conditions: sodium 0.088 M
reported.property: Tm (°C)
Give your result in °C as a bare value.

Sample answers from the record:
| sequence.data | readout.units | Tm |
| --- | --- | --- |
| GTGACCGAAAGGTTCCAC ((((((....)))..))) | °C | 33.2 |
| GTACGCGAAAGCGCGTAC ((((((....)))..))) | °C | 62.5 |
| GAGGGCGAAAGCCCACTC ((((((....)))..))) | °C | 55.6 |

Can you look up the measured Tm of GCACCTACGAAAGTATGC (((..(((....)))))) for me?
27.3

Repeat with GGACACGAAAGTGAATCC ((((((....)))..)))
32.9

Please give the result for GATCGCTTATGCGATC ((((((....)))))) too.
68.1

====

assay: folding enthalpy; higher = less favourable; fluorescence melt of hairpins on a sequencing array, two-state fit; conditions: sodium 0.088 M
reported.property: folding enthalpy (kcal/mol)
Please reply with the bare figure in kcal/mol and do not write the unit itself.

Study these solved cases before continuing.
| sequence.data | readout.units | folding enthalpy |
| --- | --- | --- |
| GGCTAGGGAAACCTAGTC (.(((((....))))).) | kcal/mol | -41.7 |
| GATCCTGCCCAGGATC ((((((....)))))) | kcal/mol | -49.4 |
| GTCAGCGGAAACACTGAC (((((.(....).))))) | kcal/mol | -40.7 |
| GACCTGGAAACAGGTC ((((((....)))))) | kcal/mol | -40.6 |
| GCTAACGAAAGTTTTAGC ((((((....)))..))) | kcal/mol | -17.4 |
| GAGCTGGGAAACCAGTTC ((.((((....)))).)) | kcal/mol | -24.4 |
| GATCGGCACCCCGATC ((((((....)))))) | kcal/mol | -31.8 |
| GCTATTCGAAAGAACAGC (((.(((....))).))) | kcal/mol | -29.6 |
| GACTCGCGAAAGCGTGTC (((.(((....))).))) | kcal/mol | -27.1 |
| GCGCAAGGAAACTCACGC (((..((....))..))) | kcal/mol | -15 |

Using the record for GATCATACGCATGATC ((((((....)))))) , report its folding enthalpy.
-37

Proceed to GCATAGGGAAACCTGTGC (((.(((....))).)))
-33.6

Then what about the sequence GATCTGAGCGCAGATC ((((((....)))))) ?
-24.7

Follow-up entry: GATCGTGCGACGATC ((((((...))))))
-38.4

====

Measured folding enthalpy, listed per entry.
assay: folding enthalpy; higher = less favourable; fluorescence melt of hairpins on a sequencing array, two-state fit; settings: sodium 0.088 M
Provide only the numeric value, understood in kcal/mol.

Solved entries (count: 8):
| sequence.data | readout.units | folding enthalpy |
| --- | --- | --- |
| GCCGAGGGAAACCTTGGC (((.(((....))).))) | kcal/mol | -35.4 |
| GGACCGGGAAACCGGTTC (.(((((....))))).) | kcal/mol | -22.3 |
| GGATATACGAAAGTATCC (((..(((....)))))) | kcal/mol | -16.9 |
| GATCCTACGTAGGATC ((((((....)))))) | kcal/mol | -40.6 |
| GCAGACGAAAGTCTGTGC ((((((....)))..))) | kcal/mol | -22.2 |
| GCTCTAGGAAACTAGAAC (.(((((....))))).) | kcal/mol | -14.2 |
| TCCGGGAAACCGGA (((((....))))) | kcal/mol | -20.2 |
| GCGGATGACCGC ((((....)))) | kcal/mol | -21.6 |

Bench note: what folding enthalpy did GTCACCGAAAGGTGGGAC ((((((....)))..))) show?
-9.56

Cool, now GCTCGGCGAAAGCATAGC (((..((....))..)))
-12.3

Further, for GATCCCACCGGGATC ((((((...)))))) ?
-28.9

How about this sequence: GATCTATGACTAGATC ((((((....))))))
-26.7
